The origin of these recorded values is patent US11261186B2.

target: hGPR120 (Homo sapiens, UniProt Q5NUL3); assay: Measurement of Activity of GPR120 Agonist (Cell-Based Assay), Calcium 5 dye fluorescence; details: CHO-K1 cells expressing Ga16 and hGPR120
Sequence (Q5NUL3 whole entry): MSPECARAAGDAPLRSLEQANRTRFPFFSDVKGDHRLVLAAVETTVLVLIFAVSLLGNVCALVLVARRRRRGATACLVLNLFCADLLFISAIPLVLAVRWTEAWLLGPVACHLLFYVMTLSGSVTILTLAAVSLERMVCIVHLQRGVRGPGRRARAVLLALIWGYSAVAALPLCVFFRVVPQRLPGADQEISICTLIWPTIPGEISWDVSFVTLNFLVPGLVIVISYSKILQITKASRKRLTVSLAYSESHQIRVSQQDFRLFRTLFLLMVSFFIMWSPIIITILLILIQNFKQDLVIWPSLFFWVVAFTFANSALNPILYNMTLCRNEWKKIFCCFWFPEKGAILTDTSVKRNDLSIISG
pEC50: −log10 of the molar value.
MEASURED ATTRIBUTE: pEC50

COMPOUND	ENDPOINT VALUE
Cc1cc(OC2CCC2)nc(-c2cc(F)c(OCCCC(=O)O)c(Cl)c2)n1 [Example 391]	> 6.70
O=C(O)CCCOc1c(F)cc(-c2csc(OCC3CC3)n2)cc1F [Example 397]	> 6.70
CCCOc1cccc(-c2ccc3c(c2)CCC(CCC(=O)O)O3)n1 (stereo not drawn) [Example 556]	> 6.70
CC(C)Oc1cncc(-c2cc(F)c(N3CCC(CC(=O)O)C3)c(F)c2)n1 (stereo not drawn) [Example 586]	> 6.70
O=C(O)CCCOc1c(F)cc(-c2cccc(S(=O)(=O)C3CCC3)c2)cc1F [Example 416]	5.70 to 6.70
O=C(O)CC1CCN(c2c(F)cc(-c3nccc(OC4CCC4)n3)cc2F)CC1 [Example 330]	> 6.70
CC(C)Sc1cccc(-c2cc(F)c(N3CCC4(CC3)CC4C(=O)O)c(F)c2)n1 (stereo not drawn) [Example 111]	4.70 to 5.70
O=C(O)CCCOc1c(F)cc(-c2cccc(OC3CCCC3)n2)cc1Cl [Example 400]	> 6.70

# ---- query compound ----
Hi! What's the reported pEC50 for O=C(O)CC1CCN(c2c(F)cc(-c3cncc(OC4CCCC4)n3)cc2F)CC1 [Example 344] on hGPR120 (Homo sapiens, UniProt Q5NUL3)?
> 6.70
